Target: human KDR enzyme (Homo sapiens)
Construct: The cytoplasmic domain of the human KDR enzyme was cloned in GST fusion form; GST; made in house; host or cells: SF21 insect cells (baculovirus, pFastBac)
Sequence (P35968 786-1356 limits assumed): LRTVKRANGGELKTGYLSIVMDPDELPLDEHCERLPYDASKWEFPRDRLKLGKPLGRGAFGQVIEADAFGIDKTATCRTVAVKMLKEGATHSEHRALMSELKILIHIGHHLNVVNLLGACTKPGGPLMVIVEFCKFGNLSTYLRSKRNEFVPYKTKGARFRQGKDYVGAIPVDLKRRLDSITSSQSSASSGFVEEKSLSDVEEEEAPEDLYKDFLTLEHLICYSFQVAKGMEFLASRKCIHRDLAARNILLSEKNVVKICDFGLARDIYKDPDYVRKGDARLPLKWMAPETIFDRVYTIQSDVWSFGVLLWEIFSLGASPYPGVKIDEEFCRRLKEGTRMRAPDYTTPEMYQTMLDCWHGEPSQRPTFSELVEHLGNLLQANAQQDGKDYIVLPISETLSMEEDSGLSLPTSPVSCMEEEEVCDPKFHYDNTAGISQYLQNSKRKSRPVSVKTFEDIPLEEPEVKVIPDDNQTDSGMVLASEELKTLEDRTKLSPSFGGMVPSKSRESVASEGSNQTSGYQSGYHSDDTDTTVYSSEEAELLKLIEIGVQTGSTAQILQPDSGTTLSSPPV
Test: KDR kinase inhibition: phosphorylation of PLCγ SH2-SH3 substrate by KDR enzyme, 33P-ATP scintillation plate
Type: biochemical
Conditions: read-out: KDR % Inhib. 10 μM
metric name: inhibition at 10 µM (%)

- molecular string: "Cc1cc2nc(-c3[nH]nc4c3CCN(C(=O)c3ccccc3Cl)C4)[nH]c2cc1C"
  inhibition at 10 µM / %: 73
- molecular string: "Cc1cc2nc(-c3[nH]nc4c3CCN(CCCc3ccccc3)C4)[nH]c2cc1C"
  inhibition at 10 µM / %: 17.9
- molecular string: "Cc1cc2nc(-c3[nH]nc4c3CCN(C(=O)CN(C)C)C4)[nH]c2cc1C"
  inhibition at 10 µM / %: 15.9

1 = CCCC(=O)N1CCc2c(n[nH]c2-c2nc3cc(C)c(C)cc3[nH]2)C1
2 = CCS(=O)(=O)N1CCc2c(n[nH]c2-c2nc3cc(C)c(C)cc3[nH]2)C1
Q. Given the listed records, identify the one among 1 and 2 with higher inhibition at 10 µM. Please reply using the label of the selected record.
A. 1
(1: 29.4%, 2: 16.5%)

---

Molecular target: human Tie2 (Homo sapiens, UniProt Q02763)
Construct: human Tie2 corresponding to amino acids 776-1124 of the intracellular domain was generated by PCR; made in house; host or cells: baculovirus expression system (vector pFastBacGT)
Sequence (Q02763 776-1124): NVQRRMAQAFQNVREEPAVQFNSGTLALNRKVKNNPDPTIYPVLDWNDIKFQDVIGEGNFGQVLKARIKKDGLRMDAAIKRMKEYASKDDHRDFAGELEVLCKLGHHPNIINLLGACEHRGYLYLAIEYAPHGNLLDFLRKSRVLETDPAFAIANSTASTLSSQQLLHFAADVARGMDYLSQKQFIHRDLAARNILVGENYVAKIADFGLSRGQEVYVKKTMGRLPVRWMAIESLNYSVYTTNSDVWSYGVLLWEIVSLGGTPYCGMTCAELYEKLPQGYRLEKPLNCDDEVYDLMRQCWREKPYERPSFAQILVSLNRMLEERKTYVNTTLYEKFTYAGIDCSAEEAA
Experiment: Tie2 kinase inhibition: phosphorylation of GST-PLC (SH2-SH3 fragments) by GST-Tie2, 33P-ATP flashplate
Format: biochemical
Conditions: read-out: Tie2 % Inhib. 10 μM
metric name: inhibition at 10 µM (%)

Below: 6 compounds and their reported inhibition at 10 µM.
- compound: "Cc1cc2nc(-c3[nH]nc4c3CCN(C(=O)c3ccco3)C4)[nH]c2cc1C [Chemistry 53]"
  inhibition at 10 µM / %: 92.7
- compound: "Cc1cc2nc(-c3[nH]nc4c3CCN(C(=O)C(C)(C)C)C4)[nH]c2cc1C [Chemistry 54]"
  inhibition at 10 µM / %: 81.3
- compound: "Cc1cc2nc(-c3[nH]nc4c3CCN(S(=O)(=O)c3ccccc3Cl)C4)[nH]c2cc1C [Chemistry 31]"
  inhibition at 10 µM / %: 93.2
- compound: "Clc1cccc(CN2CCc3c(n[nH]c3-c3nc4ccccc4[nH]3)C2)c1 [Chemistry 70]"
  inhibition at 10 µM / %: 65.5
- compound: "Cc1cc2nc(-c3[nH]nc4c3CCN(CC(C)(C)C)C4)[nH]c2cc1C [Chemistry 15]"
  inhibition at 10 µM / %: 69.4
- compound: "Cc1cc2nc(-c3[nH]nc4c3CCN(S(=O)(=O)c3cccc(Cl)c3Cl)C4)[nH]c2cc1C [Chemistry 25]"
  inhibition at 10 µM / %: 89.1

A = Cc1cc2nc(-c3[nH]nc4c3CCNC4)[nH]c2cc1C [Chemistry 22]
B = Cc1cc2nc(-c3[nH]nc4c3CCN(C(=O)c3ccc(Cl)cc3)C4)[nH]c2cc1C [Chemistry 48]
Q. Please indicate which entry, A or B , has the lower recorded inhibition at 10 µM value. Could you answer with the label of the item you picked?
A. A
(A: 24.9%, B: 83.8%)
